- Tested on: wheat (Triticum aestivum)
- method: Test A greenhouse herbicide test, pre- and postemergence
- Assay type: in vivo
- setup-conditions: Triticum aestivum, post-emergence, 240 h; Postemergence, 500 g ai/ha; 0 to 100 scale, 0 is no effect, 100 is complete control; read-out: Wheat plant response rating
measured-property: plant injury at 500 g/ha (%)
Give a bare numeral; the unit % is implied.

INSERT INTO measurements (molecule, measured_property, quantitative_result) VALUES
  ('Cc1nn(C)c(=O)c(-c2c(C)oc3c(C)cccc23)c1O', 'plant injury at 500 g/ha', 0);

Any idea what plant injury at 500 g/ha was measured for Cc1cc(C)c2oc(C)c(-c3c(O)c(C)nn(C)c3=O)c2c1 ?
0

Which plant injury at 500 g/ha value belongs to CC(=O)Oc1c(C)nn(C)c(=O)c1-c1c(C)oc2ccc(C)cc12 ?
0

Using the record for COc1nn(C)c(=O)c(-c2c(C)c(C)cc3ccccc23)c1O , report its plant injury at 500 g/ha.
20
